The measured values listed here are drawn from patent US20030068675.

SYSTEM: ZFP SBS#1322 (synthetic)
Sequence (chain, as listed by the source): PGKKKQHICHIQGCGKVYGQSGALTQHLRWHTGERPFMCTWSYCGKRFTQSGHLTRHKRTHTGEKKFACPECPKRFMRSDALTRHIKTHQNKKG
EXPERIMENTAL DETAILS: EMSA
CONDITION DETAILS: tags: MBP fusion
MEASUREMENT KIND: pKd
// scale note: pKd = -log10(conc_M); give the bare number

**Q:** Any idea what its pKd is? The binder is GTGGGAATA (dsDNA) DNA 1: GTGGGAATA DNA 2: TATTCCCAC
**A:** 9.10
